# Tested on: A549 NSCLC
# runDescription: NCI tumour cell line growth inhibition, 48 h
measurementLabel: TGI

Recorded TGI, per entry:
| compound | testTarget | TGI |
| --- | --- | --- |
| Cc1ccc(C2CC(c3ccc([N+](=O)[O-])cc3)=Nc3ccccc3S2)cc1 (centres undefined) | A549 NSCLC | > 100 µM |
| O=C1NCN(c2ccccc2)C12CCN(CCc1ccc3[nH]c(=S)[nH]c3c1)CC2 | A549 NSCLC | > 100 µM |
| COc1ccc(-c2cnoc2-c2ccc(OC)c(OC)c2)cc1OC | A549 NSCLC | > 44.8 µM |

For every item in the list below, what is its measured TGI?
1. O=S1(=O)NNC(=NCc2ccc(Cl)c(Cl)c2)c2ccccc21
2. CCC(C)C(C(=O)N/N=C1/SCC(=O)N1C)C(=O)N/N=C1/SCC(=O)N1C (centres undefined)
3. CNC(C)Cc1ccccc1O (centres undefined)

1. > 100 µM
2. > 100 µM
3. > 100 µM

For every item in the list below, what is its measured TGI?
1. OC(CC(CC(O)(C(F)(F)Cl)C(F)(F)Cl)=NNc1ccccc1)(C(F)(F)Cl)C(F)(F)Cl
2. C=C(C)C#CC(O)(C(=O)OC1CCN(C)CC1)C(C)C (centres undefined)
3. O=C(/C=C/c1ccccc1)c1c[nH]c2ccccc2c1=O
4. Cc1cc(Cc2cc(C)c(O)c(C)c2)cc(C)c1O
5. CC12CCC([C@H](N3CCOCC3)/C1=N\OCCN1CCCC1)C2(C)C (some centres undefined)

> 10 µM
> 100 µM
10.3 µM
38.2 µM
> 100 µM

For every item in the list below, what is its measured TGI?
1. NCC[Se][Se]CCN
2. CCOC(=O)[C@@H]1C[C@H]1c1ccc(O)c(O)c1
3. CC1=NN(c2nc(N)nc(/C(C#N)=C/c3ccc([N+](=O)[O-])o3)n2)C(C)(C)C1

1. 25.3 µM
2. > 100 µM
3. 29.8 µM

src = PubChem BioAssay (NCI)
